tested on: IGROV1 ovarian; assay: NCI-60 one-dose screen, 48 h (100 = growth as untreated, 0 = no growth, -100 = all killed); settings: 10 µM unless noted
About 83,000 compounds went through this panel and 20% of them were active in at least one assay; those are over-represented in the sample as a whole.
I'd appreciate it if you could supply growth values for the items below.
Give bare numbers, in %.

Known results for compounds:
Cc1ccc(N=c2nc3sc4c(C)ccc(C)c4n3c(N)c2C#N)cc1 : 95.1
CCCCC1COc2cccc3c(SCC(=O)N(C)c4cccc5ccccc45)cc[n+]1c23 (stereo not given) : 111
O=c1onc(-c2ccccc2)c2ccccc12 : 113
Cn1c2ccccc2c2nn(Cc3ccccc3)c(=O)nc21 : 120
CC1(C)N=C(N)N=C(N)N1c1cccc(OCCOc2cccc([N+](=O)[O-])c2)c1 : 29.7
O=c1c2c(=NCCN3CCCC3)cc3c(=O)n(CCCN4CCOCC4)c(=O)c4c(-c5ccc(CN6CCCC6)cc5)cc(c(O)n1CCCN1CCOCC1)c2c4-3 : -25.4
Cc1ccc2nc(NC(=O)CSC(=S)N3CCN(Cc4ccccc4)CC3)sc2c1 : -39.8
CCCCC(O)Cn1ncc(C(=O)OCC)c1NC(=O)NCc1ccccc1C(F)(F)F (stereo not given) : 99
CN(C)c1ccc(/C=C(\C#N)c2cc3ccccc3n2C)cc1 : 26.7

Pending compound:
Please give the measured growth for this compound: O=C1OCC2=C1C(c1ccc3c(c1)OCO3)CC(=O)N2c1cccc(Cl)c1 (stereo not given)
104

###

test system: NCI-H23 lung; assay: NCI-60 one-dose screen, 48 h (100 = growth as untreated, 0 = no growth, -100 = all killed); settings: 10 µM unless noted
This is part of a sample that, as a whole, favours compounds with a hit. Of some 83,000 tested, about 20% had one in any assay.
MEASURED_ATTRIBUTE: growth (%)
Give bare numbers, in %.

Known results for molecules:
COc1ccc(CSc2nc3cc(OC)c(OC)cc3c(=O)n2-c2ccc(Cl)cc2)cc1 : 102
CCCCCCCC/C=C\CCCCCCCCOc1cccc(CC(=O)NCC[N+]2(C)CCCCC2)c1 : 71.9
COc1cccc(OC)c1OC(=O)c1ccccc1 : 100

Record growth per entry; entries follow.
1. C=C1CC[C@@H]2[C@@](C)(CCC[C@]2(C)C(=O)O)[C@@H]1CC[C@H](CO)CCO
2. CC(C)(C)[Si](C)(C)OC1[C@@H](COC(=O)NC(=O)CCl)O[C@@H](n2cnc3c(N)ncnc32)[C@H]1O[Si](C)(C)C(C)(C)C (some centres undefined)
3. Nc1cccc2c(=S)c3ccccc3[nH]c12
4. CCOc1ccc(-c2cnnn2-c2nonc2-n2cccc2)cc1
5. CCCCOC(=O)C1OC(Oc2ccc3c(C)cc(=O)oc3c2)[C@@H](OC(C)=O)C(OC(C)=O)C1OC(C)=O (some centres undefined)

1: 102; 2: -45; 3: 95.9; 4: 17.3; 5: 99.9

Please give the measured growth for this molecule: CCC(C)Oc1cc(/C=N/NC(=O)c2cnn3c2NC(c2ccccc2)C3)ccc1OC (centres undefined)
58

###

I'd appreciate it if you could supply growth values for the items below.
tested on: RPMI-8226 leukemia; test: NCI-60 one-dose screen, 48 h (100 = growth as untreated, 0 = no growth, -100 = all killed); details: 10 µM
This is part of a sample that, as a whole, favours compounds with a hit. Of some 83,000 tested, about 20% had one in any assay.
One number for each entry, in %.

COc1cc(-c2nc(Nc3nc4ccccc4[nH]3)nc(N)c2C#N)cc(OC)c1OC : 69.8
COc1cc(NC(=O)COc2ccccc2)c(C(N)=O)cc1OC : 9.18
O=C(N/N=C(\CS(=O)(=O)c1ccccc1)c1cc2ccccc2oc1=O)c1ccccc1 : 112
O=C(Nc1nc2ccccc2[nH]1)C(=O)Nc1nc2ccccc2[nH]1 : 90.8
CC(C)NCC(O)COc1ccc(CCOCC2CC2)cc1 (stereo unspecified) : 99.1
O=C(NCc1ccc(F)cc1)C1CN(c2ccc(Cl)cc2)N(c2ccc(Cl)cc2)C1=O (stereo unspecified) : 72.8
CC(C)(C)CC(C)(C)N(CSc1ccc(Cl)cc1)CSc1ccc(Cl)cc1 : -25
O=C1/C(=C/c2ccc([N+](=O)[O-])cc2)Oc2ccc(O)cc21 : 34

Record growth per entry; entries follow.
1. COC(=O)c1c2c(c(C)[n+]([O-])c1C)C(=O)C(NCc1ccc(O)cc1)=CC2=O
2. CC(C)N1CCN(c2ccc(OC[C@H]3CO[C@](Cn4cncn4)(c4ccc(Cl)cc4Cl)O3)cc2)CC1
3. CC1=C(C/C=C(\C)CCC[C@H](C)CCC[C@H](C)CCCC(C)C)C(=O)c2ccccc2C1=O

[-2.15, 88.7, 106]
